Target: interaction between GMPPNP-bound recombinant K-Ras4B G12C mutant protein and cRAF RAS-binding domain (cRAF-RBD) (Homo sapiens, UniProt P01116, G12C)
Construct: His-tag (N)
Sequence (P01116 with tags, fused parts or gaps isoform P01116-2 G12C): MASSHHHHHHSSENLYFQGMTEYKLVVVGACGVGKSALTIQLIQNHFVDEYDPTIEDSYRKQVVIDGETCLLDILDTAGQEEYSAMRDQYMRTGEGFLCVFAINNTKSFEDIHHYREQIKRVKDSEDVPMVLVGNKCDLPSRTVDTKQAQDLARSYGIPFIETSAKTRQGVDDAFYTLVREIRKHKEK
Experiment: Inhibitory activity on interaction between KRAS G12C and cRAF (Alpha technology)
Conditions: GMPPNP-bound KRAS G12C incubated with compound 25° C. 1 hour; Table 2-1; read-out: IC50
Protocol: Interaction between recombinant K-Ras4B G12C mutant protein (amino acids 1-169, SEQ ID NO:2) and cRAF RAS-binding domain (cRAF-RBD, amino acids 50-132, Jena Biosciences GmbH) was measured using Alpha technology (PerkinElmer Inc.). Recombinant KRAS G12C protein with an N-terminal His-tag was expressed in E. coli and purified by affinity chromatography. […]
endpoint: pIC50
Answer as the number alone; pIC50 is minus log10 of concentration in mol/L.

Query: Which value of pIC50 has been reported for Cn1cnc2c3c(c(C(F)(F)F)cc21)-c1cccn2c(C(=O)c4cc(F)c(NC(=O)/C=C/CN5CC[C@H]6CC[C@@H](O)[C@H]65)c(F)c4)cc(c12)CCO3 (racemic) in the records?
Result: 7.67

Query: // same read-out, input: Cc1c2cc(C(F)(F)F)c3c(c2nn1C)N(C)CCc1nc(C(=O)c2cc(F)c(NC(=O)/C=C/CN[C@H]4CCOC4)c(F)c2)n2cccc-3c12 (single isomer, unassigned)
Result: 7.17

Query: // same read-out, input: COCCn1c(C)nc2c3c(c(OC)cc21)-c1cccn2c(C(=O)c4cc(F)c(NC(=O)C=CCNC5(C)CC5)c(F)c4)cc(c12)CCS3
Result: 8.05

Query: // same read-out, input: Cn1cnc2c3c(c(C(F)(F)F)cc21)-c1cccn2c(C(=O)c4cc(F)c(NC(=O)/C=C/CN[C@H]5[C@@H]6COC[C@@H]65)c(F)c4)cc(c12)CCO3
Result: 8.13

Query: // same read-out, input: Cn1cnc2c3c(c(C(F)(F)F)cc21)-c1cccn2c(C(=O)c4cc(F)c(NC(=O)/C=C/CN5CC6(COC6)C5)c(F)c4)cc(c12)CCO3
Result: 7.24
